# testSystem: CETP (Homo sapiens, UniProt P11597)
# assayDetails: Ex vivo CETP activity inhibitory effect of plasma from transgenic mice
# Parameters: from tissue; host or cells: plasma of transgenic mice carrying the human CETP gene
# assayConditions: mouse, po; 10 mg/kg, p.o.; 6 hours after administration; transgenic mice with human CETP gene; read-out: CETP activity inhibitory rate in plasma from transgenic mouse
measureName: inhibition at 10 mg/kg

> print(dat)
                                   molecule  assayvalue
1  CC(=O)OC(C)(C)C(=O)Sc1ccccc1NC(=O)C1(CCC(C)C)CCCCC1 [Example 25-52]         19%

From here, focus on the item given below.
Looking for the measured inhibition at 10 mg/kg of CC(C)CCC1(C(=O)Nc2ccccc2S)CCCCC1 [Example 11] , can you help? 27%

###

# testSystem: UniProtKB P11597
# assayDetails: In vitro CETP activity inhibitory effect in whole plasma
# assayConditions: plasma from healthy subjects containing [3H]CE-HDL3, incubated 4 hours at 37° C.; read-out: CETP activity inhibition in whole plasma IC50
# Experimental: The fraction thus obtained was dialyzed against a PBS solution [10 mM Na2HPO4/10 mM NaH2PO4/0.15 M NaCl/1 mM EDTA (pH 7.4)]. Then, tritium-labeled cholesterol (10 nM) (50.3 Ci/mM) was dissolved in 95% ethanol and added gradually to the above HDL3 fraction under stirring. The solution was incubated for 18 hours at 37° C. […] After incubation, KBr was added and specific gravity was adjusted to d=1.21 g/ml. […] Based on the inhibition rate (%) of CETP activity, IC50 value of each sample was calculated.
# pIC50 per entry
# pIC50 is unitless: minus log10 of the molar concentration; print number only

Here are 3 compounds together with their reported answers.
> print(dat)
                            structuresmiles  measurename  assayvalue
1  CC(=O)Sc1cc(Cl)c(Cl)cc1NC(=O)C1(CCC(C)C)CCCCC1        pIC50        5.00
2  CC1(C(=O)Nc2ccccc2SC(=O)Cc2cccc(Cl)c2)CCCCC1        pIC50        4.57
3  CC(C)CCC1(C(=O)Nc2ccccc2SSc2ccccc2NC(=O)C2(CCC(C)C)CCCCC2)CCCCC1        pIC50        5.52

# context switch: different compound, same pIC50
Form field - read-out: pIC50; system: UniProtKB P11597; submitted item: `CC(C)(C)C(=O)Nc1ccccc1SC(=O)Cc1ccccc1NC(=O)C1(C)CCCCC1` 4.32

###

pIC50 by entry:
# testSystem: CETP (Homo sapiens, UniProt P11597)
# Sequence (P11597 18-493): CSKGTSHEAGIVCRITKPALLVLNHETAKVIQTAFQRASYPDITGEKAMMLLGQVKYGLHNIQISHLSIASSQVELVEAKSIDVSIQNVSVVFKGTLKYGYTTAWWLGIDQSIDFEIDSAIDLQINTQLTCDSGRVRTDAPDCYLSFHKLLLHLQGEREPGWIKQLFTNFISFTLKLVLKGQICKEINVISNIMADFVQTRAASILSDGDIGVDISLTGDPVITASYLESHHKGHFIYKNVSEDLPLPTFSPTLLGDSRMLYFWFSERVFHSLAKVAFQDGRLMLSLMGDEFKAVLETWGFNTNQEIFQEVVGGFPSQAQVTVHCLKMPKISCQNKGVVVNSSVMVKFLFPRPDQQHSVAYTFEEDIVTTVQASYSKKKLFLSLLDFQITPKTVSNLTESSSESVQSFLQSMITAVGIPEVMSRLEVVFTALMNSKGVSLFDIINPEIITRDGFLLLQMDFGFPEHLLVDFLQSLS
# assayDetails: In vitro CETP activity inhibitory effect in whole plasma
# assayConditions: plasma from healthy subjects containing [3H]CE-HDL3, incubated 4 hours at 37° C.; read-out: CETP activity inhibition in whole plasma IC50
# Description: The fraction thus obtained was dialyzed against a PBS solution [10 mM Na2HPO4/10 mM NaH2PO4/0.15 M NaCl/1 mM EDTA (pH 7.4)]. Then, tritium-labeled cholesterol (10 nM) (50.3 Ci/mM) was dissolved in 95% ethanol and added gradually to the above HDL3 fraction under stirring. The solution was incubated for 18 hours at 37° C. […] After incubation, KBr was added and specific gravity was adjusted to d=1.21 g/ml. […] Based on the inhibition rate (%) of CETP activity, IC50 value of each sample was calculated.
Just so you know, pIC50 here is -log10 of the concentration in molar units; reply with that number alone.

# count of solved cases: 3
> print(dat)
                            structuresmiles  measurename  assayvalue
1  CCC(=O)Sc1cc(Cl)c(Cl)cc1NC(=O)C1(CCC(C)C)CCCCC1        pIC50        5.15
2  CC(C)CCC1(C(=O)Nc2ccccc2SC(=O)Nc2ccccc2)CCCCC1        pIC50        4.89
3  CC(=O)N1CCC[C@H]1C(=O)Sc1ccccc1NC(=O)C1(C)CCCCC1        pIC50        4.62

Here is another compound to look at.
Record request: pIC50 value, item `CC(C)(C)C(=O)Nc1ccccc1SC(=O)Sc1ccccc1NC(=O)C(C)(C)C` 4.74

###

# testSystem: CETP (Homo sapiens)
# assayDetails: Ex vivo CETP activity inhibitory effect of plasma from transgenic mice
# Design: from tissue; host or cells: plasma of transgenic mice carrying the human CETP gene
# assayConditions: mouse, po; 30 mg/kg, p.o.; 6 hours after administration; transgenic mice with human CETP gene; read-out: CETP activity inhibitory rate in plasma from transgenic mouse
measureName: inhibition at 30 mg/kg
The answer consists of two parts: a number and, after it, its unit.

The following molecules have reported results that may help.
> print(dat)
                            structuresmiles  assayvalue
1  CC(=O)N[C@H](C(=O)Sc1ccccc1NC(=O)C1(CCC(C)C)CCCCC1)C(C)C         21%
2  CC(C)CCC1(C(=O)Nc2ccccc2SC(=O)COc2ccc(Cl)cc2)CCCCC1         42%
3  CC(C)CCC1(C(=O)Nc2cc(F)ccc2SC(=O)C(C)(C)C)CCCCC1         26%

# evaluate next
Return reported inhibition at 30 mg/kg; argument: `CC(C)CC1(C(=O)Nc2ccccc2SC(=O)COc2ccc(Cl)cc2)CCCCC1` 34%

###

# testSystem: CETP (Homo sapiens)
# Sequence (P11597 18-493): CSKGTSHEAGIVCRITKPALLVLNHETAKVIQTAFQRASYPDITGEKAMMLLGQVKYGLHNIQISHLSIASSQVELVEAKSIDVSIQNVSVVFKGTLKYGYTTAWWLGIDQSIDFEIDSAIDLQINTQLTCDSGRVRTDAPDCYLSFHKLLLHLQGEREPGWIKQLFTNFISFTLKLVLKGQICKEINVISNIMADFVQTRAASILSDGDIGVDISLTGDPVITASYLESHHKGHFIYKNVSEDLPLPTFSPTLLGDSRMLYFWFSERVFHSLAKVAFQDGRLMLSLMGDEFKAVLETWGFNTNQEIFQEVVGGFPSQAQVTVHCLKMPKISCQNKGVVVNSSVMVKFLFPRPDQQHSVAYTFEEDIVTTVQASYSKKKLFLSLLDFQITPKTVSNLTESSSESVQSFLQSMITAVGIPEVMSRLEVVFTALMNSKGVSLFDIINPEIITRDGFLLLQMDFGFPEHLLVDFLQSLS
# assayDetails: Ex vivo CETP activity inhibitory effect of plasma from transgenic mice
# Parameters: from tissue; host or cells: plasma of transgenic mice carrying the human CETP gene
# assayConditions: mouse, po; 30 mg/kg, p.o.; 6 hours after administration; transgenic mice with human CETP gene; read-out: CETP activity inhibitory rate in plasma from transgenic mouse
Label scheme for inhibition at 30 mg/kg: lower than 20% is no (0), 20% and above is yes (1).

> print(dat)
                                   compound  labelvalue
1  CCC(CC)CC1(C(=O)Nc2ccccc2SC(=O)C(C)(C)O)CCCCC1 [Example 62]     yes (1)
2  CC(C)CCC1(C(=O)Nc2ccccc2SC(=O)c2ccccc2Cl)CCCCC1 [Example 25-49]      no (0)
3  CCC(CC)CC1(C(=O)Nc2ccccc2SC(C)=O)CCCCC1 [Example 59]     yes (1)
4  CC(=O)N[C@@H](Cc1ccccc1)C(=O)Sc1ccccc1NC(=O)C1(CCC(C)C)CCCCC1 [Example 34]      no (0)
5  CCC(=O)Sc1ccccc1NC(=O)C1(CCC(C)C)CCCCC1 [Example 38]     yes (1)

Hello, I need to know if CC(C)C1(C(=O)Nc2ccccc2S)CCCCC1 [Example 14] has measured inhibition at 30 mg/kg not below 20%. Thanks! no (0)

Again, but for CSCC[C@H](NC(C)=O)C(=O)Sc1ccccc1NC(=O)C1(CCC(C)C)CCCCC1 [Example 25-57] yes (1)

Next entry: COc1ccc(NC(=O)Sc2ccccc2NC(=O)C2(CCC(C)C)CCCCC2)cc1 [Example 25-100] yes (1)

Param item: CC(C)CC1(C(=O)Nc2ccccc2SC(=O)C(C)C)CCCCC1 [Example 27] yes (1)

Field entry: CC(C)CCC1(C(=O)Nc2ccccc2SC(=O)C(C)(C)C)CCCC1 [Example 48] yes (1)

And for CC(C)CCC1(C(=O)Nc2cc(F)c(F)cc2SC(=O)C(C)(C)C)CCCCC1 [Example 80] ? no (0)

Moving on to the next compound: COc1ccc(NC(=O)Sc2ccccc2NC(=O)C2(CCC(C)C)CCCC2)cc1 [Example 25-107] yes (1)

Ok, now CC(C)CCC1(C(=O)Nc2ccccc2SC(=O)COc2ccccc2)CCCCC1 [Example 39] yes (1)

Okay, and CC(C)CCC1(C(=O)Nc2ccccc2SC(=O)Nc2ccccc2)CCCC1 [Example 25-106] ? yes (1)

Now the same for CC(C)CCC1(C(=O)Nc2ccccc2SC(=O)C2CCN(C)CC2)CCCCC1 [Example 25-53] yes (1)

What do you get for Cc1ccc(S)c(NC(=O)C2(CCC(C)C)CCCCC2)c1 [Example 22] ? yes (1)

Similarly, CC(C)CCC1(C(=O)Nc2ccccc2SC(=O)Cc2ccccc2)CCCC1 [Example 25-61] ? yes (1)

Field entry: CC(C)CCC1(C(=O)Nc2ccccc2SC(=O)Nc2ccccc2)CCCCC1 [Example 56] yes (1)
